Data origin, for the record: patent US20200123233A1

Please go through the items and note down their Potency (IU/nM) increase versus monovalent.
Target: Rabies virus glycoprotein G, strain CVS-11 (Challenge Virus Standard-11, ATCC VR 959) (Rabies virus, strain CVS-11)
Experiment: cell-based or functional assay
Give the number; fold is assumed, so skip it.

Which Potency (IU/nM) increase versus monovalent is listed for 213-E6 25GS 214-E8 (VHH) EVQLVESGGGLVQAGASLRLSCAASGSTLSRYGVGWFRQAPGKERELVASVDWSGSRTYYADSVKGRFTISRDNAKNTGYLQMNSLKPDDTAVYYCAADSSVVPGIEKYDDWGLGTQVTVSSGGGGSGGGGSGGGGSGGGGSGGGGSEVQLVESGGGSVQAGGSLRLSCAASGGTFNPYVMAWFRQAPGNEREFVARIRWSGGDAYYDDSVKGRFAITRDAAKNTVHLQMNSLKPEDTAVYYCAAATYGYGSYTYGGSYDLWGQGTQVTVSS ?
2.3

Which Potency (IU/nM) increase versus monovalent is listed for 213-H7 15GS 213-H7 (VHH) EVQLVESGGGLVQAGGSLRLSCAASGRTLSSYRMGWFRQAPGKEREFISTISWNGRSTYYADSVKGRFIFSEDNAKNTVYLQMNSLKPEDTAVYYCAAALIGGYYSDVDAWSYWGPGTQVTVSSGGGGSGGGGSGGGGSEVQLVESGGGLVQAGGSLRLSCAASGRTLSSYRMGWFRQAPGKEREFISTISWNGRSTYYADSVKGRFIFSEDNAKNTVYLQMNSLKPEDTAVYYCAAALIGGYYSDVDAWSYWGPGTQVTVSS ?
34.2
